Experiment: Cytotoxicity against human EAhy926 cells assessed as cell survival at 0.5 ug/mL after 24 hrs by MTT assay
Assay type: cell-based, EA.hy 926
Conditions: read-out: Survival
Each record here notes measured viability at 24 h, 0.5 ug/mL.
Output spec: scalar in %, unitless text.

Answered cases to consult:
Request: Param item = "CCOC(=O)c1ccc(NC(=O)c2cc3cc(Br)cc(Cl)c3oc2=O)cc1" ; retrieve measured viability at 24 h, 0.5 ug/mL.
Result: 98

Request: Continue with "CCOC(=O)c1ccc(NC(=O)c2cc3ccc(O)cc3oc2=O)cc1"
Result: 99

Next:
Request: Param item = "CCOC(=O)c1ccc(NC(=O)c2cc3cc(O)ccc3oc2=O)cc1" ; retrieve measured viability at 24 h, 0.5 ug/mL.
Result: 99

Request: Another compound to look at: "CCOC(=O)c1ccc(NC(=O)c2cc3cc(OC)ccc3oc2=O)cc1"
Result: 98

Request: Next entry: "O=C(O)c1ccc(NC(=O)c2cc3ccc(O)cc3oc2=O)cc1"
Result: 99

Request: Entry to check: "COc1ccc2oc(=O)c(C(=O)Nc3ccc(C(=O)O)cc3)cc2c1"
Result: 99

Request: Record: "CCOC(=O)c1ccc(NC(=O)c2cc3cc(C)ccc3oc2=O)cc1"
Result: 99

----------
Assay: Cytotoxicity against human EAhy926 cells assessed as cell survival at 0.5 ug/mL after 24 hrs by trypan blue exclusion assay
Format: cell-based, EA.hy 926
Settings: read-out: Survival
Recorded viability at 24 h, 0.5 ug/mL for the following compounds
Expressed in %, but write only the number.

Request: Any idea what its viability at 24 h, 0.5 ug/mL is? The compound is "CCOC(=O)c1ccc(NC(=O)c2cc3cc(Br)cc(Cl)c3oc2=O)cc1"
Result: 86

Request: Also "CCOC(=O)c1ccc(NC(=O)c2cc3ccc(O)cc3oc2=O)cc1" ?
Result: 95

Request: Try this compound too: "CCOC(=O)c1ccc(NC(=O)c2cc3cc(C)ccc3oc2=O)cc1"
Result: 77

Request: Note, next up: "CCOC(=O)c1ccc(NC(=O)c2cc3cc(O)ccc3oc2=O)cc1"
Result: 83

Request: And for "CCOC(=O)c1ccc(NC(=O)c2cc3cc(OC)ccc3oc2=O)cc1" ?
Result: 67

Request: What about this compound? "O=C(O)c1ccc(NC(=O)c2cc3ccc(O)cc3oc2=O)cc1"
Result: 93

----------
# Lookup of reported MIC keyed by entry
Test system: Helicobacter pylori
Test: Antibacterial activity against metronidazole-resistant Helicobacter pylori isolate 20 after 72 hrs by agar dilution method
Assay type: functional
Details: isolate 20, 72 h

Worked examples, 10 molecules total:
Request: Need MIC of "CCOC(=O)N1CCC(NC(=O)c2cc3cc(Br)ccc3oc2=O)CC1" , thanks.
Result: 32 µg/mL

Request: Let us now turn to "O=C(O)c1ccc(NC(=O)c2cc3cc(Br)cc(Br)c3oc2=O)cc1"
Result: 16 µg/mL

Request: Repeat for the following molecule: "CCOC(=O)c1ccc(NC(=O)c2cc3ccc(O)cc3oc2=O)cc1"
Result: 2 µg/mL

Request: Next: "O=C(O)c1ccc(NC(=O)c2cc3ccc(O)cc3oc2=O)cc1"
Result: 8 µg/mL

Request: Repeat for the following molecule: "CCOC(=O)c1ccc(NC(=O)c2cc3cc(Br)cc(Br)c3oc2=O)cc1"
Result: 64 µg/mL

Request: Then this molecule: "O=C(O)c1ccc(NC(=O)c2cc3cccc(O)c3oc2=O)cc1"
Result: > 128 µg/mL

Request: "O=C(O)c1ccc(NC(=O)c2cc3cc(O)ccc3oc2=O)cc1" , same question.
Result: 4 µg/mL

Request: Could you do the same for "COc1ccc2oc(=O)c(C(=O)Nc3ccc(C(=O)O)cc3)cc2c1" , please?
Result: 4 µg/mL

Request: # repeat for "CCOC(=O)c1ccc(NC(=O)c2cc3cc(Br)cc(Cl)c3oc2=O)cc1"
Result: 8 µg/mL

Request: Also "CCOC(=O)c1ccc(NC(=O)c2cc3cc(OC)ccc3oc2=O)cc1" , if possible.
Result: 4 µg/mL

// switching to the query molecule
Request: Name the reported MIC value associated with the molecule "O=C(O)c1ccc(NC(=O)c2cc3cc(Br)cc(Cl)c3oc2=O)cc1"
Result: 32 µg/mL

Reference source for all entries: ChEMBL document CHEMBL1208768
